Task for the reader: assign each of the following molecules its reported EC50.
molecular target: human μ-subtype opioid receptor (hMOR) (Homo sapiens (Human)); experiment: MOR β-arrestin-2 agonist activity test; assay type: cell-based; settings: >30000 nM = greater than the highest detection concentration; read-out: MOR β-arrestin-2 EC50
Structures can show the parent of a compound that is named as a salt.

// known answers, use as guide
| MOLECULE | TARGET_DESC | EC50 |
| --- | --- | --- |
| Fc1ccnc([C@]2(CCNCc3scc4c3CCC4)CCO[C@]3(CCOC3)C2)c1 [(+)-6] | human μ-subtype opioid receptor (hMOR) (Homo sapiens (Human)) | > 30 µM |
| COc1ccsc1CNCC[C@@]1(c2ccc(F)cc2)CCO[C@]2(CCOC2)C1 [(+)-3] | human μ-subtype opioid receptor (hMOR) (Homo sapiens (Human)) | > 30 µM |
| Fc1ccc([C@]2(CCNCc3cccc(Cl)c3)CCO[C@]3(CCOC3)C2)nc1 [(+)-16] | human μ-subtype opioid receptor (hMOR) (Homo sapiens (Human)) | > 30 µM |
| Cc1ccsc1CNCC[C@@]1(c2ccc(F)cc2)CCO[C@]2(CCOC2)C1 [(+)-13] | human μ-subtype opioid receptor (hMOR) (Homo sapiens (Human)) | > 30 µM |
| Clc1cccc(CNCC[C@@]2(c3ccccn3)CCO[C@]3(CCOC3)C2)c1 [(+)-8] | human μ-subtype opioid receptor (hMOR) (Homo sapiens (Human)) | > 30 µM |

Provide reported EC50 for each item, in the same order as listed.
1. Fc1ccc([C@]2(CCNCc3scc4c3CCC4)CCO[C@]3(CCOC3)C2)nc1 [(+)-5]
2. c1ccc([C@]2(CCN[C@H]3CCc4ccccc43)CCO[C@]3(CCOC3)C2)nc1 [(+)-25]

1. > 30 µM
2. > 30 µM

Each molecule below has a reported value. Please supply its EC50.
1. Fc1ccc([C@]2(CCNCc3cc(Cl)cc(Cl)c3)CCO[C@]3(CCOC3)C2)nc1 [Hydrochloride Salt of (+)-24]
2. Clc1cc(Cl)cc(CNCC[C@@]2(c3ccccn3)CCO[C@]3(CCOC3)C2)c1 [(+)-21]
3. Fc1ccc([C@]2(CCNCc3ccc(Cl)cc3)CCO[C@]3(CCOC3)C2)nc1 [(+)-17]
4. c1ccc([C@]2(CCN[C@H]3CCCc4ccccc43)CCO[C@]3(CCOC3)C2)nc1 [(+)-27]
5. c1ccc([C@]2(CCNCc3cccc4c3CCC4)CCO[C@]3(CCOC3)C2)nc1 [(+)-19]
6. Fc1ccc([C@]2(CCNCc3scc4c3CCC4)CCO[C@]3(CCOC3)C2)cc1 [Formate Salt of (+)-4]
7. Cc1cccc(CNCC[C@@]2(c3ccccn3)CCO[C@]3(CCOC3)C2)c1 [(+)-9]
8. Clc1ccc(CNCC[C@@]2(c3ccccn3)CCO[C@]3(CCOC3)C2)cc1Cl [(+)-20]

1: > 30 µM; 2: > 30 µM; 3: > 30 µM; 4: > 30 µM; 5: > 30 µM; 6: > 30 µM; 7: > 30 µM; 8: > 30 µM

---

molecular target: CYP2C9 (Homo sapiens (Human)); test: Inhibition of cytochrome P450 isoenzymes, CYP2C9; type: in vitro ADME; settings: >50 μM: inhibitory effect less than 50% at 50 μM; read-out: CYP 2C9 IC50
Sequence (P11712 whole entry): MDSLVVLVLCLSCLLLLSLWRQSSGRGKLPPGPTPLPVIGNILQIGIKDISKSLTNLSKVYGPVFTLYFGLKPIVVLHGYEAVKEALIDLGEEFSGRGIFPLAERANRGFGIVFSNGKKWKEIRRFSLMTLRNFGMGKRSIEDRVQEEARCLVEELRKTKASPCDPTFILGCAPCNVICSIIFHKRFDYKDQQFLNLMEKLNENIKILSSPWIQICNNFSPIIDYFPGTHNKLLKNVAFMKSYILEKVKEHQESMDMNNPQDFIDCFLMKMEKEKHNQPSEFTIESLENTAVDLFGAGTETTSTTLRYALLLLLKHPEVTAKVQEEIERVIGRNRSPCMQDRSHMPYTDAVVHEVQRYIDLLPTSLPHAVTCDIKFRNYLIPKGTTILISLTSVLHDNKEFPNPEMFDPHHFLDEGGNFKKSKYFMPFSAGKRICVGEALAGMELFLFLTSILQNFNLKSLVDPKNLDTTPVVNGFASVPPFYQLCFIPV
Structures can show the parent of a compound that is named as a salt.
PARAMETER: IC50

These solved cases illustrate the format of a correct answer.
| MOLECULE | RESULT |
| --- | --- |
| Cc1cccc(CNCC[C@@]2(c3ccccn3)CCO[C@]3(CCOC3)C2)c1 [(+)-9] | > 50 µM |
| Cc1cccc(CNCC[C@@]2(c3ccc(F)cn3)CCO[C@]3(CCOC3)C2)c1 [Hydrochloride Salt of (+)-22] | > 50 µM |
| Fc1cc(Cl)cc(CNCC[C@@]2(c3ccccn3)CCO[C@]3(CCOC3)C2)c1 [(+)-18] | > 50 µM |

# input for lookup
I have this molecule here, COc1ccsc1CNCC[C@@]1(c2ccccn2)CCOC2(CCCC2)C1 [compound 1, Oliceridine, reference compound] , and I need its recorded IC50. > 50 µM

---

experiment: Pharmacokinetics of the compounds in rats; assay type: in vivo, rat; details: male, SD, rat, plasma, iv; read-out: Hal-life T1/2 (converted)
Structures can show the parent of a compound that is named as a salt.
PARAMETER: half-life (min)
Answers are plain numbers, in min.

Examples with answers:
| MOLECULE | half-life, min |
| --- | --- |
| Fc1ccc([C@]2(CCNCc3cccc(Cl)c3)CCO[C@]3(CCOC3)C2)nc1 [(+)-16] | 54 |
| Fc1ccc([C@]2(CCNCc3cccc(F)c3)CCO[C@]3(CCOC3)C2)nc1 [Hydrochloride Salt of (+)-23] | 42 |
| COc1ccsc1CNCC[C@@]1(c2ccccn2)CCOC2(CCCC2)C1 [compound 1, Oliceridine, reference compound] | 48 |

Given Fc1ccc([C@]2(CCNCc3scc4c3CCC4)CCO[C@]3(CCOC3)C2)nc1 [(+)-5] , state its recorded half-life. 54

---

Answer each item with its documented Emax.
biological target: human μ-subtype opioid receptor (hMOR) (Homo sapiens (Human), UniProt P35372); experiment: MOR cAMP agonist activity test; type: cell-based; conditions: maximum effect of enkephalin DAMGO was 100%
Structures can show the parent of a compound that is named as a salt.
One number for each entry, in %.

| COMPOUND | Emax, % |
| --- | --- |
| Fc1ccc([C@]2(CCNCc3cccc(F)c3)CCO[C@]3(CCOC3)C2)nc1 [Hydrochloride Salt of (+)-23] | 84.5 |
| c1ccc([C@]2(CCN[C@H]3CCCc4ccccc43)CCO[C@]3(CCOC3)C2)nc1 [(+)-27] | 91 |
| Clc1cccc(CNCC[C@@]2(c3ccccn3)CCO[C@]3(CCOC3)C2)c1 [(+)-8] | 85.3 |
| Fc1ccc([C@]2(CCN[C@H]3CCCc4ccccc43)CCO[C@]3(CCOC3)C2)nc1 [(+)-26] | 96 |
| Fc1ccnc([C@]2(CCNCc3scc4c3CCC4)CCO[C@]3(CCOC3)C2)c1 [(+)-6] | 86.5 |

Could I get Emax for every one of these entries?
1. COc1ccsc1CNCC[C@@]1(c2ccc(F)cc2)CCO[C@]2(CCOC2)C1 [(+)-3]
2. Fc1ccc([C@]2(CCNCc3cc(Cl)cc(Cl)c3)CCO[C@]3(CCOC3)C2)nc1 [Hydrochloride Salt of (+)-24]

[82, 95]

---

Would you kindly list CLint scaled for each of these compounds?
assay: Metabolic stability in liver microsomes; assay type: in vitro ADME; settings: pH 7.4; human liver microsomes 0.5 mg protein/mL; 45 mg microsome protein/g liver, 20 g liver/kg; read-out: Intrinsic Clearance CLint(liver) in Human Liver
Respond with a number, then the unit of measure.

Examples with their reported CLint scaled follow.
| COMPOUND | RESULT |
| --- | --- |
| Clc1cccc(CNCC[C@@]2(c3ccccn3)CCO[C@]3(CCOC3)C2)c1 [(+)-8] | 10 mL/min/kg |
| COc1ccsc1CNCC[C@@]1(c2ccccn2)CCOC2(CCCC2)C1 [compound 1, Oliceridine, reference compound] | 314 mL/min/kg |

Proceeding to the next compound to report its CLint scaled.
Request the reported CLint scaled associated with Fc1ccc([C@]2(CCNCc3cccc(Cl)c3)CCO[C@]3(CCOC3)C2)nc1 [(+)-16] 29.2 mL/min/kg

---

assay: Pharmacokinetics of the compounds in rats; assay type: in vivo, rat; settings: male, SD, rat, plasma, iv; read-out: Area under the Curve AUC0-inf
Structures can show the parent of a compound that is named as a salt.
Can you tell me AUC(0-inf) for the items I'm about to list?
One number for each entry, in µM·h.

The following compounds have reported results that may help.
| COMPOUND | AUC(0-inf) (µM·h) |
| --- | --- |
| Fc1ccc([C@]2(CCNCc3cccc(F)c3)CCO[C@]3(CCOC3)C2)nc1 [Hydrochloride Salt of (+)-23] | 0.763 |
| Fc1ccc([C@]2(CCNCc3cccc(Cl)c3)CCO[C@]3(CCOC3)C2)nc1 [(+)-16] | 0.723 |
| Fc1ccc([C@]2(CCNCc3scc4c3CCC4)CCO[C@]3(CCOC3)C2)nc1 [(+)-5] | 1.4 |

Read the next record carefully.
Please look up its AUC(0-inf): COc1ccsc1CNCC[C@@]1(c2ccccn2)CCOC2(CCCC2)C1 [compound 1, Oliceridine, reference compound] 1.15

---

target: UniProtKB P35372; experiment: MOR cAMP agonist activity test; type: cell-based; settings: maximum effect of enkephalin DAMGO was 100%
Structures can show the parent of a compound that is named as a salt.
Label criterion met when Emax is at or above 90%; anything below gets criterion not met.

| COMPOUND | CLASS |
| --- | --- |
| c1ccc([C@]2(CCNCc3cccc4c3CCCC4)CCO[C@]3(CCOC3)C2)nc1 [(+)-11] | criterion not met |
| c1ccc([C@]2(CCNCc3cc4c(s3)CCC4)CCOC3(CCCC3)C2)nc1 [compound 2, reference compound] | criterion met |
| Fc1ccc([C@]2(CCNCc3scc4c3CCC4)CCO[C@]3(CCOC3)C2)nc1 [(+)-5] | criterion met |
| Cc1ccsc1CNCC[C@@]1(c2ccc(F)cc2)CCO[C@]2(CCOC2)C1 [(+)-13] | criterion not met |
| Cc1cccc(CNCC[C@@]2(c3ccc(F)cn3)CCO[C@]3(CCOC3)C2)c1 [Hydrochloride Salt of (+)-22] | criterion met |

Hi, just wondering whether Fc1ccc([C@]2(CCNCc3ccc(Cl)cc3)CCO[C@]3(CCOC3)C2)nc1 [(+)-17] shows Emax of 90% or higher. criterion not met

Next entry: c1ccc([C@]2(CCNCc3cccc4c3CCC4)CCO[C@]3(CCOC3)C2)nc1 [(+)-19] criterion not met

Please do the same for COc1ccsc1CNCC[C@@]1(c2ccccn2)CCOC2(CCCC2)C1 [compound 1, Oliceridine, reference compound] as well. criterion not met

Try this compound next: c1ccc([C@]2(CCNCc3scc4c3CCC4)CCO[C@]3(CCOC3)C2)nc1 [(+)-2] criterion met

Now give it for Cc1cc(C)cc(CNCC[C@@]2(c3ccccn3)CCO[C@]3(CCOC3)C2)c1 [(+)-10] too. criterion met

Please do the same for Clc1ccc(CNCC[C@@]2(c3ccccn3)CCO[C@]3(CCOC3)C2)cc1Cl [(+)-20] as well. criterion met
